// provenance: ChEMBL document CHEMBL3988442

- tgt: Proteasome subunit beta (Trypanosoma cruzi) (UniProt O96673)
- Sequence (whole entry): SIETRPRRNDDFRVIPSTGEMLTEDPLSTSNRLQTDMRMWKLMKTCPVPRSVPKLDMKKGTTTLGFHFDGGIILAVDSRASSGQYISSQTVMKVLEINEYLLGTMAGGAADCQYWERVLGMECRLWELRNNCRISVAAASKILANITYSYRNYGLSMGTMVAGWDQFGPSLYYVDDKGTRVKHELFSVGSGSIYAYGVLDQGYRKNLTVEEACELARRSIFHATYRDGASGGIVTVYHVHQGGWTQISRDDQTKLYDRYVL
- protocol.description: Trypanosoma cruzi proteasome chymotrypsin-like activity (TcProtChymo) assay.
- Type: functional
- Design: scale not given: in the data most compounds retested in dose-response had high values
- experimental.conditions: 9.37 µM
quantity.name: Percent Effect (%)
Respond numerically; units are % and should not be typed.

Use the examples below as a reference point.
INSERT INTO assay_data (molecule, recorded_number) VALUES
  ('O=C(NCCCc1ccncc1)C1CCCN(Cc2ccco2)C1 (stereo unspecified)', 17.6),
  ('COc1ccc(CNCc2ccc(N3CCCCC3)nc2)cc1OC', 8.62),
  ('CCOCCN1CCn2c(C)nnc2C1', 13.9),
  ('CN(C)CCN1C(=O)CCC12CCN(C(=O)c1cccnc1)CC2', 5.75),
  ('CC(C)CN1CCC(NC(=O)c2ccc(F)cc2I)CC1', 8.6),
  ('CCNC(=O)N1CCN(C(=O)c2cc(Cl)cc3cccnc23)CC1', 7.93);

# query: Percent Effect of entry O=C(Nc1cc(F)ccc1OCC1CCCO1)c1ccccn1 (stereo unspecified)
0.242

What value of Percent Effect has been reported for the following molecule? COc1ccccc1CC1CCCN(CC(=O)N2CCOCC2)C1 (stereo unspecified)
-1.54

Query (molecule): CC(=O)Nc1nc(CN2CCCC2Cn2cncn2)cs1 (stereo unspecified) ; field requested: Percent Effect
9.29

Need Percent Effect, item Cc1cc(C2CCCN2Cc2cc(=O)n(C)c(=O)n2C)on1 (stereo unspecified)
1.27

What value of measured Percent Effect is listed for COc1c(CNC(c2ccc(F)cc2)c2nccn2C)c(C)nn1C (stereo unspecified) ?
13.4
